Origin of the recorded values: patent US11021531

koff listing for selected binders.
Target: SARS-Cov-2 Receptor Binding Domain (RBD) protein (SARS-CoV-2, UniProt P0DTC2 319-541)
Assay: SPR (Carterra LSA), scFv captured via anti-V5, RBD as analyte, 1:1 fit

Here's what some known entries look like.
binder="COVID19_R01_D02 (scFv, V domains shown) VH: EVQLVESGGGLVQPGGSLRLSCAASGFTFDDYAMHWVRQAPGKGLEWVAIIYEGGSPHYADSVKGRFTISRDNSKNTLYLQMNSLRAEDTAVYYCARDRSGYLDYWGQGTLVTVSS VL: EIVMTQSPATLSVSPGERATLSCRASQSVSNNLAWYQQKPGQAPRLLIYDASTRATGIPARFSGSGSGTEFTLTISSLQSEDFAVYYCQQYNNWPPTFGGGTKVEIKR" measuredvalue="0.00058 s⁻¹"
binder="COVID19_R01_B10 (scFv, V domains shown) VH: EVQLVESGGGLVQPGGSLRLSCAASGFTVSSNYMSWVRQAPGKGLEWVSVIYPGGSTFYADSVKGRFTISRDNSKNTLYLQMNSLRAEDTAVYYCARDRSYYLDYWGQGTLVTVSS VL: EIVMTQSPATLSVSPGERATLSCRASQSVSSSYLAWYQQKPGQAPRLLIYGASTRATGIPARFSGSGSGTEFTLTISSLQSEDFAVYYCQQASSTPLTFGGGTKVEIKR" measuredvalue="0.00294 s⁻¹"

Now examine the next entry.
Given item COVID19_P04_E10 (scFv, V domains shown) VH: EVQLVESGGGLVQPGGSLRLSCAASGFSFSSYGMSWVRQAPGKGLEWVSAMNRDGSYIYYADSVKGRFTISRDNSKNTLYLQMNSLRAEDTAVYYCARDRSYYVGYWGQGTLVTVSS VL: EIVMTQSPATLSVSPGERATLSCRASQSVRSNLAWYQQKPGQAPRLLIYGASTRATGIPARFSGSGSGTEFTLTISSLQSEDFAVYYCQQRNNWPPTFGGGTKVEIKR , the value recorded as its koff is 0.00053 s⁻¹
